All values here come from PubChem BioAssay AID1845198.

- System: 425362-245-T-J1 tumor spheroids, viability % test/control
- test: Anticancer human tumor 425362-245-T-J1 patient-derived melanoma cell line growth inhibition; active means viability on the fitted dose curve at most 10% of control; inactive means the rest
- stated conditions: second compound 0.003 µM; first compound 10 µM; spheroids with HUVEC and MSC
Select the correct class. Options are label 1 (active), label 0 (inactive) and nothing else.

Qu. # outcome recorded in this test, key = [2H]c1nc(C)nc([2H])c1-c1cc(NC[C@@H](C)c2cccc3c(C(=O)NC)ccnc23)ncn1 + CC[C@@]1(O)C(=O)OCc2c1cc1n(c2=O)Cc2cc3c(CN(C)C)c(O)ccc3nc2-1
Ans. label 0

Qu. Given Cc1cc(C)c(CNC(=O)c2cc(-c3ccc(CN4CCOCC4)cc3)cc3c2cnn3C2CCCC2)c(=O)[nH]1 + COc1cc2c(cc1O)CCNC21CSC2c3c(OC(C)=O)c(C)c4c(c3C(COC1=O)N1C(O)C3Cc5cc(C)c(OC)c(O)c5C(C21)N3C)OCO4 , state the outcome it received in this test.
Ans. label 1

Qu. I'd appreciate the recorded outcome for COc1cc(C)[nH]c(=O)c1CN1CCc2c(Cl)cc(C(OC)C3COC3)c(Cl)c2C1=O (configuration not stated) + CC[C@@]1(O)C(=O)OCc2c1cc1n(c2=O)Cc2cc3c(CN(C)C)c(O)ccc3nc2-1 from this test.
Ans. label 0

Qu. What did this assay record as the result for CC1COCCN1c1cc(-c2ccnn2C)c2ccnc(-c3ccn[nH]3)c2n1 (configuration not stated) + CC[C@@]1(O)C(=O)OCc2c1cc1n(c2=O)Cc2cc3c(CN(C)C)c(O)ccc3nc2-1 ?
Ans. label 1

Qu. Fill in: this test's call for COc1cc(C)[nH]c(=O)c1CN1CCc2c(Cl)cc(C(OC)C3COC3)c(Cl)c2C1=O (configuration not stated) + COc1cc2c(cc1O)CCNC21CSC2c3c(OC(C)=O)c(C)c4c(c3C(COC1=O)N1C(O)C3Cc5cc(C)c(OC)c(O)c5C(C21)N3C)OCO4 is ___
Ans. label 1

Qu. How was CC1COCCN1c1cc(-c2ccnn2C)c2ccnc(-c3ccn[nH]3)c2n1 (configuration not stated) + COc1cc2c(cc1O)CCNC21CSC2c3c(OC(C)=O)c(C)c4c(c3C(COC1=O)N1C(O)C3Cc5cc(C)c(OC)c(O)c5C(C21)N3C)OCO4 classified in this test?
Ans. label 1

Qu. Recorded test call requested for COc1ccc([C@@H](O)c2cc(-c3ncnc4cc(N5CCOCC5)ccc34)c(F)cc2Cl)nn1 + CC[C@@]1(O)C(=O)OCc2c1cc1n(c2=O)Cc2cc3c(CN(C)C)c(O)ccc3nc2-1
Ans. label 0

* * *

- System: 425362-245-T-J1 tumor spheroids, viability % test/control
- test: Anticancer human tumor 425362-245-T-J1 cell line growth inhibition;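 further: spheroids exposed to agents for 7 days; 100% = DMSO vehicle control viability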
- stated conditions: second compound 0.0003 µM; first compound 3 µM; hits give low values; spheroids with HUVEC and MSC
Give measured viability, T/C for each item. Keep answers brief.
Numbers only; they are read as %.

Qu. Entry under review: O=C(c1cc(Cc2n[nH]c(=O)c3ccccc23)ccc1F)N1CCN(C(=O)C2CC2)CC1 + COc1cc2c(cc1O)CCNC21CSC2c3c(OC(C)=O)c(C)c4c(c3C(COC1=O)N1C(O)C3Cc5cc(C)c(OC)c(O)c5C(C21)N3C)OCO4 . Reported viability, T/C?
Ans. 7.06

Qu. I would be grateful if you could share the reported viability, T/C for Cn1ncnc1[C@H]1c2n[nH]c(=O)c3cc(F)cc(c23)N[C@@H]1c1ccc(F)cc1 + COc1cc2c(cc1O)CCNC21CSC2c3c(OC(C)=O)c(C)c4c(c3C(COC1=O)N1C(O)C3Cc5cc(C)c(OC)c(O)c5C(C21)N3C)OCO4 .
Ans. 0.77

Qu. Name the reported viability, T/C value associated with the compound Cc1sc2c(c1C)C(c1ccc(Cl)cc1)=NC(CC(=O)Nc1ccc(O)cc1)c1nnc(C)n1-2 (centres undefined) + COc1cc2c(cc1O)CCNC21CSC2c3c(OC(C)=O)c(C)c4c(c3C(COC1=O)N1C(O)C3Cc5cc(C)c(OC)c(O)c5C(C21)N3C)OCO4
Ans. 0.19

Qu. Name the reported viability, T/C value associated with the compound CNCc1ccc(-c2cc(-c3nc(-c4ccc(S(=O)(=O)C(C)C)cc4)cnc3N)on2)cc1 + COc1cc2c(cc1O)CCNC21CSC2c3c(OC(C)=O)c(C)c4c(c3C(COC1=O)N1C(O)C3Cc5cc(C)c(OC)c(O)c5C(C21)N3C)OCO4
Ans. 0.15

* * *

- Tested on: 425362-245-T-J1 tumor spheroids, viability % test/control
- test: Anticancer human tumor 425362-245-T-J1 cell line growth inhibition;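 further: spheroids exposed to agents for 7 days; 100% = DMSO vehicle control viability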
- stated conditions: second compound 3.16 µM; first compound 0.1 µM; hits give low values; spheroids with HUVEC and MSC
viability, T/C strictly less than 90% = rule met. Otherwise rule not met.

Qu. Threshold test, viability, T/C < 90%: CC(C)n1c(=O)n(C)c2cnc3cc(F)c(-c4ccc(OCCCN5CCCCC5)nc4)cc3c21 + Cn1nnc2c(C(N)=O)ncn2c1=O
Ans. rule met

Qu. I wonder whether CC1COCCN1c1cc(-c2ccnn2C)c2ccnc(-c3ccn[nH]3)c2n1 (stereo unspecified) + Cn1nnc2c(C(N)=O)ncn2c1=O has viability, T/C below 90%. Can you tell?
Ans. rule met

Qu. Hello, is viability, T/C of the following molecule strictly smaller than 90%? COc1cc(C)[nH]c(=O)c1CN1CCc2c(Cl)cc(C(OC)C3COC3)c(Cl)c2C1=O (stereo unspecified) + Cn1nnc2c(C(N)=O)ncn2c1=O
Ans. rule not met

Qu. Please indicate whether the reported viability, T/C of COc1ccc([C@@H](O)c2cc(-c3ncnc4cc(N5CCOCC5)ccc34)c(F)cc2Cl)nn1 + Cn1nnc2c(C(N)=O)ncn2c1=O is strictly below 90%.
Ans. rule not met

Qu. Please check: viability, T/C for Cc1cc(C)c(CNC(=O)c2cc(-c3ccc(CN4CCOCC4)cc3)cc3c2cnn3C2CCCC2)c(=O)[nH]1 + Cn1nnc2c(C(N)=O)ncn2c1=O , strictly under 90% or not?
Ans. rule not met

* * *

- Test system: 425362-245-T-J1 tumor spheroids, viability % test/control
- test: Anticancer human tumor 425362-245-T-J1 cell line growth inhibition;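 further: spheroids exposed to agents for 7 days; 100% = DMSO vehicle control viability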
- stated conditions: second compound 0.000949 µM; first compound 0.316 µM; hits give low values; spheroids with HUVEC and MSC
measurement label: viability, T/C

Qu. Using the record for COc1ccc([C@@H](O)c2cc(-c3ncnc4cc(N5CCOCC5)ccc34)c(F)cc2Cl)nn1 + COc1cc2c(cc1O)CCNC21CSC2c3c(OC(C)=O)c(C)c4c(c3C(COC1=O)N1C(O)C3Cc5cc(C)c(OC)c(O)c5C(C21)N3C)OCO4 , report its viability, T/C.
Ans. 0.14%

Qu. Quick check: viability, T/C of CC1COCCN1c1cc(-c2ccnn2C)c2ccnc(-c3ccn[nH]3)c2n1 (stereo unspecified) + COc1cc2c(cc1O)CCNC21CSC2c3c(OC(C)=O)c(C)c4c(c3C(COC1=O)N1C(O)C3Cc5cc(C)c(OC)c(O)c5C(C21)N3C)OCO4 ?
Ans. 0.15%

Qu. May I ask what viability, T/C has been recorded for [2H]c1nc(C)nc([2H])c1-c1cc(NC[C@@H](C)c2cccc3c(C(=O)NC)ccnc23)ncn1 + COc1cc2c(cc1O)CCNC21CSC2c3c(OC(C)=O)c(C)c4c(c3C(COC1=O)N1C(O)C3Cc5cc(C)c(OC)c(O)c5C(C21)N3C)OCO4 ?
Ans. 1.41%

Qu. What measured viability, T/C goes with COc1cc(C)[nH]c(=O)c1CN1CCc2c(Cl)cc(C(OC)C3COC3)c(Cl)c2C1=O (stereo unspecified) + COc1cc2c(cc1O)CCNC21CSC2c3c(OC(C)=O)c(C)c4c(c3C(COC1=O)N1C(O)C3Cc5cc(C)c(OC)c(O)c5C(C21)N3C)OCO4 ?
Ans. 1.6%

Qu. Which viability, T/C value belongs to Cc1cc(C)c(CNC(=O)c2cc(-c3ccc(CN4CCOCC4)cc3)cc3c2cnn3C2CCCC2)c(=O)[nH]1 + COc1cc2c(cc1O)CCNC21CSC2c3c(OC(C)=O)c(C)c4c(c3C(COC1=O)N1C(O)C3Cc5cc(C)c(OC)c(O)c5C(C21)N3C)OCO4 ?
Ans. 0.34%

Qu. Suppose we examine the compound CC(C)n1c(=O)n(C)c2cnc3cc(F)c(-c4ccc(OCCCN5CCCCC5)nc4)cc3c21 + COc1cc2c(cc1O)CCNC21CSC2c3c(OC(C)=O)c(C)c4c(c3C(COC1=O)N1C(O)C3Cc5cc(C)c(OC)c(O)c5C(C21)N3C)OCO4 ; what viability, T/C value has been reported?
Ans. 0.19%

* * *

- Tested on: 425362-245-T-J1 tumor spheroids, viability % test/control
- test: Anticancer human tumor 425362-245-T-J1 cell line growth inhibition;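 further: spheroids exposed to agents for 7 days; 100% = DMSO vehicle control viability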
- stated conditions: second compound 94.9 pM; first compound 0.1 µM; hits give low values; spheroids with HUVEC and MSC
measurement label: viability, T/C (%)
Could you give me the number in %? Just the number is fine.

Qu. Suppose we examine the compound [2H]c1nc(C)nc([2H])c1-c1cc(NC[C@@H](C)c2cccc3c(C(=O)NC)ccnc23)ncn1 + COc1cc2c(cc1O)CCNC21CSC2c3c(OC(C)=O)c(C)c4c(c3C(COC1=O)N1C(O)C3Cc5cc(C)c(OC)c(O)c5C(C21)N3C)OCO4 ; what viability, T/C value has been reported?
Ans. 90.1

Qu. # input compound: COc1cc(C)[nH]c(=O)c1CN1CCc2c(Cl)cc(C(OC)C3COC3)c(Cl)c2C1=O (stereo unspecified) + COc1cc2c(cc1O)CCNC21CSC2c3c(OC(C)=O)c(C)c4c(c3C(COC1=O)N1C(O)C3Cc5cc(C)c(OC)c(O)c5C(C21)N3C)OCO4 ; wanted: its viability, T/C
Ans. 93.9

Qu. Which viability, T/C reading was recorded for the compound CC1COCCN1c1cc(-c2ccnn2C)c2ccnc(-c3ccn[nH]3)c2n1 (stereo unspecified) + COc1cc2c(cc1O)CCNC21CSC2c3c(OC(C)=O)c(C)c4c(c3C(COC1=O)N1C(O)C3Cc5cc(C)c(OC)c(O)c5C(C21)N3C)OCO4 ?
Ans. 5

Qu. Reported viability, T/C for CC(C)n1c(=O)n(C)c2cnc3cc(F)c(-c4ccc(OCCCN5CCCCC5)nc4)cc3c21 + COc1cc2c(cc1O)CCNC21CSC2c3c(OC(C)=O)c(C)c4c(c3C(COC1=O)N1C(O)C3Cc5cc(C)c(OC)c(O)c5C(C21)N3C)OCO4 : what is it?
Ans. 9.68

Qu. If you can, please state the reported viability, T/C value of Cc1cc(C)c(CNC(=O)c2cc(-c3ccc(CN4CCOCC4)cc3)cc3c2cnn3C2CCCC2)c(=O)[nH]1 + COc1cc2c(cc1O)CCNC21CSC2c3c(OC(C)=O)c(C)c4c(c3C(COC1=O)N1C(O)C3Cc5cc(C)c(OC)c(O)c5C(C21)N3C)OCO4 .
Ans. 87.3

Qu. What does the data say about its viability, T/C? Entry: COc1ccc([C@@H](O)c2cc(-c3ncnc4cc(N5CCOCC5)ccc34)c(F)cc2Cl)nn1 + COc1cc2c(cc1O)CCNC21CSC2c3c(OC(C)=O)c(C)c4c(c3C(COC1=O)N1C(O)C3Cc5cc(C)c(OC)c(O)c5C(C21)N3C)OCO4
Ans. 91.2
